assay: chemical genetic growth profiling, strain panel (AID 1159580);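 note: tested at 20 µM; growth read once vehicle control cultures reached saturation at 30 °C; 1 = growth at the plate median or of vehicle wells; lower values mean less growth of the strain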; settings: S. cerevisiae deletion strains, growth OD, locus YOR329C, strain SCD5, hits give low values
The whole screen tested about 5,500 compounds, of which about 2,000 (36%) were called active. About 18% were inconclusive and are not listed. The list shows a part of the results.

smiles representation | normalized growth
O=C(CO/N=C\c1ccc(Cl)cc1Cl)NNC(=S)Nc1cc(Cl)ccc1Cl | 1.01
O=C(Nc1ccc(Cl)cc1Cl)c1cnccc1C(F)(F)F | 0.975
CSc1cccc(N2C(=O)CC(c3c(Cl)cccc3Cl)CC2=O)c1 | 0.985

###

assay: chemical genetic growth profiling, strain panel (AID 1159580);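 note: tested at 20 µM; growth read once vehicle control cultures reached saturation at 30 °C; 1 = growth at the plate median or of vehicle wells; lower values mean less growth of the strain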; settings: S. cerevisiae deletion strains, growth OD, locus YJL187C, strain SWE1 (second series)
About 2,000 (36%) of roughly 5,500 compounds were called active. About 18% were inconclusive and are not listed. Cut-off read from the data, not from the text of the source: active = normalized growth mostly below about 0.91 (no sharp cut-off); inconclusive = no clear call, values can overlap the other calls; inactive = mostly above about 0.92. The list shows a part of the results.
Classes used: 1 (yes) = active, 0 (no) = inactive

compound | class
C[C@](N)(Cc1ccc(O)c(O)c1)C(=O)O | 0 (no)
O=C(O)c1cc(=O)c2c(OCC(O)COc3cccc4oc(C(=O)O)cc(=O)c34)cccc2o1 | 0 (no)
C=CCc1cc(OC)c2c(c1OC)OCO2 | 0 (no)
C[C@@]12C(=O)OC(=O)[C@]1(C)C1CCC2O1 | 0 (no)
Nc1nc(N)c2nc(CNc3ccc(C(=O)NC(CCC(=O)O)C(=O)O)cc3)cnc2n1 (configuration not stated) | 0 (no)
CCn1cc(C(=O)O)c(=O)c2cnc(N3CCCC3)nc21 | 0 (no)
CC1(C)C2CC(=O)O[C@@]3(C)C4=CC(=O)O[C@@H](c5ccoc5)[C@]4(C)CCC3[C@@]2(C)C=C[C@H]1O (some centres not stated) | 0 (no)
CCC(CCC(C)C1CCC2C3CC=C4C[C@@H](OC(C)=O)CC[C@]4(C)C3CC[C@]12C)C(C)C (some centres not stated) | 0 (no)
CC[C@]12CCCN3CCc4c(n(c5ccccc45)C(=O)C1)[C@@H]32 | 0 (no)
S=c1[nH]c2ccccc2s1 | 0 (no)
COc1ccc(/C=C/C(=O)O)cc1OC | 0 (no)
COc1ccccc1-c1cc(=O)c2cccc(OC)c2o1 | 0 (no)
Oc1ccc(/C=C/c2cc(O)cc(O)c2)cc1 | 0 (no)
CCOC(=O)C1=C[C@]2(CC)CCCN3CCc4c(n1c1ccccc41)[C@@H]32 | 0 (no)
CCCCC(CC)CN=C(N)NC(N)=NCCCCCCN=C(N)NC(N)=NCC(CC)CCCC (configuration not stated) | 1 (yes)
CC12CCC3C(CC=C4CC(O)CCC43C)C1CCC2=O (configuration not stated) | 0 (no)
COc1cc(/C=C/C(=O)O)ccc1O | 0 (no)
CC[C@@H](C(=O)O)[C@@H]1O[C@@H]([C@@H](C)[C@H](O)[C@H](C)C(=O)[C@H](CC)[C@H]2O[C@]3(C=C[C@@H](O)[C@]4(CC[C@@](C)(C5CC[C@](O)(CC)[C@H](C)O5)O4)O3)[C@H](C)C[C@@H]2C)[C@@H](C)C[C@H]1C (some centres not stated) | 1 (yes)
CC(=O)N[C@@H]1[C@@H](C(O)[C@H](O)CO)O[C@](O)(C(=O)O)C[C@@H]1O (some centres not stated) | 0 (no)
Cc1cccc(CN2CCN(C(c3ccccc3)c3ccc(Cl)cc3)CC2)c1 (configuration not stated) | 1 (yes)
O=C(O)CCCCC1SCC2NC(=O)NC21 (configuration not stated) | 0 (no)
CCOP(=S)(OCC)SCSCC | 0 (no)
COc1cc(C)c2c(c1C=O)Oc1c(c(C)c(O)c3c1C(O)OC3=O)OC2=O (configuration not stated) | 0 (no)
COc1cc(C(=O)O)c(O)c2c1OCO2 | 0 (no)
CC(=O)O[C@H]1CC[C@@]2(C)C(=CCC3C2CC[C@]2(C)C(=O)CCC32)C1 (some centres not stated) | 0 (no)
CCn1cc(C(=O)O)c(=O)c2cnc(N3CCNCC3)nc21 | 0 (no)
C=CC1=C(C)/C(=C/c2[nH]c(Cc3[nH]c(/C=C4\NC(=O)C(C)=C4C=C)c(C)c3CCC(=O)O)c(CCC(=O)O)c2C)NC1=O | 0 (no)
O=C(O)c1cc(O)c(O)c(O)c1 | 0 (no)
CC[C@]12CCCN3CCc4c(n(c5ccccc45)[C@](O)(C(=O)OC)C1)[C@@H]32 | 0 (no)
COc1c(C(=O)O)ccc2c1CCC(C)(C)O2 | 0 (no)
CCN(CC)CCOC(=O)C(Cc1cccc2ccccc12)CC1CCCO1 (configuration not stated) | 0 (no)
NCCCCN=C(N)N | 0 (no)
CC(=O)C1=C(O)C2C3c4c[nH]c5cccc(c45)CC3C(C)(C)N2C1=O (configuration not stated) | 0 (no)
CC(=O)OC/C=C(C)/C=C/C=C(C)/C=C/C1=C(C)CCCC1(C)C | 0 (no)
COc1c(C2COc3cc4c(cc3C2=O)CC(O)C(C)(C)O4)ccc2c1CCC(C)(C)O2 (configuration not stated) | 0 (no)
CC1CC2C(C(O)CC3(C)C2CCC3(O)C(=O)COC(=O)CCC(=O)O)C2(C)C=CC(=O)C=C12 (configuration not stated) | 0 (no)
CC[C@@H]1[C@@H](O)N2C3C[C@H]1C1C(O)[C@]4(C[C@@H]12)c1ccccc1N(C)[C@@H]34 (some centres not stated) | 0 (no)
